test.system: human NaV1.8 (Homo sapiens, UniProt Q9Y5Y9)
Construct: The following NaV1.8 recombinant cell line was used for recordings: HEK-NaV1.8 (NM 006514.1)
Sequence (Q9Y5Y9 whole entry): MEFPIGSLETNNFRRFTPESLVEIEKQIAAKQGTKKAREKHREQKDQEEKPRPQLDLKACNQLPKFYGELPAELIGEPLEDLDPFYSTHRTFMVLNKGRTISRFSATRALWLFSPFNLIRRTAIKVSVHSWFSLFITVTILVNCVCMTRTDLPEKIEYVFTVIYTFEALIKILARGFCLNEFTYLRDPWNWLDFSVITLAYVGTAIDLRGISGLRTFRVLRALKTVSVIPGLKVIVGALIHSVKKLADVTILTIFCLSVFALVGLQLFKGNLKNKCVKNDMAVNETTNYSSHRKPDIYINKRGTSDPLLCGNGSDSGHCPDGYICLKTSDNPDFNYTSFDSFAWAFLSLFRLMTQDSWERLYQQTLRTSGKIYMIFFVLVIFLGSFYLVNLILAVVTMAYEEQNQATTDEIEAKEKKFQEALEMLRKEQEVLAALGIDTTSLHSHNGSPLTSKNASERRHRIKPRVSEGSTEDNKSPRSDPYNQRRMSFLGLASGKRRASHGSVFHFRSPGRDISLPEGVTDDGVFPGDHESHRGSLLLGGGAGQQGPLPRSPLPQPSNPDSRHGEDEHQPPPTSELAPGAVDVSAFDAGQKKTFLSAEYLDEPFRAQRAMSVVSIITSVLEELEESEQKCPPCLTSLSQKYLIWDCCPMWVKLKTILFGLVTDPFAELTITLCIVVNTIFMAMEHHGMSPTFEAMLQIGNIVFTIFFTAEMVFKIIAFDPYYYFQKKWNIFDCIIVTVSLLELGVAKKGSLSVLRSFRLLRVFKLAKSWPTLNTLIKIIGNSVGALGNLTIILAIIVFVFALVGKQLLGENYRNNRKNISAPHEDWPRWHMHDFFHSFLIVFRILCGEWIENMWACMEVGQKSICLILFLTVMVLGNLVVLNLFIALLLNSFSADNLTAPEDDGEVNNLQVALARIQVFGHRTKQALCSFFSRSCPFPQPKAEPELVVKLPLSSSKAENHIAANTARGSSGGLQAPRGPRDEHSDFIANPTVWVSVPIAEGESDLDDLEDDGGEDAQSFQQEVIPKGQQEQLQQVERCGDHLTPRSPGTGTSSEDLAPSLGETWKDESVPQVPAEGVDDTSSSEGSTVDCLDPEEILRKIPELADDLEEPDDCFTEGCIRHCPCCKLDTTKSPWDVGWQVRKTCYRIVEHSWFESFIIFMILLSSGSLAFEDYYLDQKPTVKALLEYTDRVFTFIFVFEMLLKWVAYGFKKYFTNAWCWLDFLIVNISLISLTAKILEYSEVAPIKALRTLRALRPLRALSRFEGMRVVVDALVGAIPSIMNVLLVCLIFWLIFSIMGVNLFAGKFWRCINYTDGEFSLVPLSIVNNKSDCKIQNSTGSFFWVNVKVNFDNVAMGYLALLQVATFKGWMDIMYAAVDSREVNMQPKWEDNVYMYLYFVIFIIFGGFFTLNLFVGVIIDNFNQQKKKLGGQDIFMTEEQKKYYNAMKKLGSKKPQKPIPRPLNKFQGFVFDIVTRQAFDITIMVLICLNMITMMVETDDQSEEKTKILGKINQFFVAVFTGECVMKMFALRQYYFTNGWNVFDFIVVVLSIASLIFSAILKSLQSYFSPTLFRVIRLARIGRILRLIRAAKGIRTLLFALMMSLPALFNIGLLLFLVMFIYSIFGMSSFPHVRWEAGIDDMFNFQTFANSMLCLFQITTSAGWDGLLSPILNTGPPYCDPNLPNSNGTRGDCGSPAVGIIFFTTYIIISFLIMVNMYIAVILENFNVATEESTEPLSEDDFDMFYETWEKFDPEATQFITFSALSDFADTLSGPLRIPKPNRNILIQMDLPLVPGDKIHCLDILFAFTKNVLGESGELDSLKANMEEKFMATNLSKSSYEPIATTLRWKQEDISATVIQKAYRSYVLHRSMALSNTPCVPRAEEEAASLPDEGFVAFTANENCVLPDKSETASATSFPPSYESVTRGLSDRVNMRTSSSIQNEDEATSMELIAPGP
Sequence (Q9NY72 23-215 partner): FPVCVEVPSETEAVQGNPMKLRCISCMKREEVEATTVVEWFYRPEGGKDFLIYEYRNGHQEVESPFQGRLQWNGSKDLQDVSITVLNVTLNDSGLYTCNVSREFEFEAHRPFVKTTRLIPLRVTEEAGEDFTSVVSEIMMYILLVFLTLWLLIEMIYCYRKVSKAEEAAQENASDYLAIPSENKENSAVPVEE
test.summary: Electrophysiology: automated whole-cell voltage-clamp (patch clamp, Qube384) recordings of sodium currents in HEK-NaV1.8 cells
condition.notes: potency data either taken from inactivated or resting state, read-out: Potency category (human NaV1.8 IC50)
endpoint: IC50

# value lookup — system human NaV1.8 (Homo sapiens, UniProt Q9Y5Y9), readout IC50, item NC(=O)c1cc(NC(=O)c2c(C(F)(F)F)c(OC3CC(F)(F)C3)nn2CC2CCC(F)(F)C2)ccn1 (stereo not drawn) [SC-283] ≤ 0.1 µM

Request: IC50, test system human NaV1.8 (Homo sapiens, UniProt Q9Y5Y9), entry Cc1c(C(C)(F)F)nn(CC2CC(F)(F)CC2C(F)(F)F)c1C(=O)Nc1ccnc(C(N)=O)c1 (racemic) [SC-217] ≤ 0.1 µM

Reported IC50 for human NaV1.8 (Homo sapiens, UniProt Q9Y5Y9), given NC(=O)c1cc(NC(=O)c2c(Cl)c(C(F)(F)F)nn2CC2CCC(F)(F)C2)ccn1 (single isomer, unassigned) [SC-160b] ? ≤ 0.1 µM
